Values were extracted from ChEMBL document CHEMBL1821720.

# Ratio per record follows
- TESTED TARGET: Hexokinase-4 (Homo sapiens)
- ASSAY METHOD TEXT: Activation of human recombinant glucokinase expressed in Escherichia coli coexpressing G6PDH at 10 uM using 5 mM glucose measured as ratio of enzyme activation in treated to untreated control by G6PDH coupled continuous spectrophotometric assay
READOUT NAME: Ratio

input_smiles=CC(=O)c1ccccc1-c1cc(C(=O)Nc2nc3c(s2)CCC3)co1 readout_name=Ratio result_number=1.77
input_smiles=Cc1cc(C(=O)Nc2nc3c(s2)CCCC3)no1 readout_name=Ratio result_number=1.11
input_smiles=CCc1nc(NC(=O)c2cc(C)oc2C)sc1CC readout_name=Ratio result_number=1.09
input_smiles=COc1ccc(-c2cc(C(=O)Nc3nc4c(s3)CCC4)c(C)o2)cc1OC readout_name=Ratio result_number=0.9
input_smiles=CC(=O)c1ccccc1-c1cc(C(=O)Nc2nc3c(s2)CCCC3)cs1 readout_name=Ratio result_number=1.57
input_smiles=Cc1sc(-c2ccccc2C(N)=O)cc1C(=O)Nc1nc2c(s1)CCC2 readout_name=Ratio result_number=3.34
input_smiles=Cc1sc(-c2ccccc2S(C)(=O)=O)cc1C(=O)Nc1nc2c(s1)CCC2 readout_name=Ratio result_number=3.11
input_smiles=COC(=O)c1ccc(NC(=O)c2cc(C)oc2C)nc1 readout_name=Ratio result_number=1.33
input_smiles=Cc1oc(-c2ccccc2C(=O)O)cc1C(=O)Nc1nc2c(s1)CCC2 readout_name=Ratio result_number=0.92
input_smiles=Cc1oc(-c2cccnc2)cc1C(=O)Nc1nc2c(s1)CCC2 readout_name=Ratio result_number=1.09
input_smiles=O=C(Nc1nc2c(s1)CCCC2)c1ccncc1 readout_name=Ratio result_number=1.01

---

Reported Ratio values follow for various molecules
- TESTED TARGET: Hexokinase-4 (Homo sapiens) (UniProt P35557)
- Sequence (P35557 whole entry): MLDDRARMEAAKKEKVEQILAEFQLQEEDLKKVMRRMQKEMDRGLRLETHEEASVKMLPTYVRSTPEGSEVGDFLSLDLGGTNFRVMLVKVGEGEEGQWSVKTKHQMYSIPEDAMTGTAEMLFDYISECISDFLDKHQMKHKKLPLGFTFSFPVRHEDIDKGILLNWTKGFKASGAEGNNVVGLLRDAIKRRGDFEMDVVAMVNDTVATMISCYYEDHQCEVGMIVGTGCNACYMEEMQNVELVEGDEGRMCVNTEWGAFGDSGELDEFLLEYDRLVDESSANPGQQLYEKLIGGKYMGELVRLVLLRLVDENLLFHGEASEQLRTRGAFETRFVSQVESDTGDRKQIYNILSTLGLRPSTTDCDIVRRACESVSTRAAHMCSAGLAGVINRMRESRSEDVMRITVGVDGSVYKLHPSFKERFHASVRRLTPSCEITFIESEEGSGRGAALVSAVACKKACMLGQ
- ASSAY METHOD TEXT: Activation of human recombinant glucokinase expressed in Escherichia coli coexpressing G6PDH at 10 uM using 5 mM glucose measured as ratio of enzyme activation in treated to untreated control by G6PDH coupled continuous spectrophotometric assay
READOUT NAME: Ratio

input_smiles=Cc1noc(C)c1C(=O)Nc1nc2c(s1)CCCC2 result_number=1.01
input_smiles=O=C(Nc1nc(C2CCCCC2)cs1)c1ccccc1 result_number=1.35
input_smiles=COCc1cc(C(=O)Nc2nc3c(s2)CCC3)c(C)o1 result_number=1.92
input_smiles=CC(=O)c1ccccc1-c1cc(C(=O)Nc2nc3c(s2)CCC3)c(C)s1 result_number=3.52
input_smiles=CC(=O)c1ccccc1-c1cc(C(=O)Nc2nc3c(s2)CCCC3)c(C)s1 result_number=3.17
input_smiles=Cc1oc(-c2ccccc2C(N)=O)cc1C(=O)Nc1nc2c(s1)CCC2 result_number=2.29

---

- TESTED TARGET: Hexokinase-4 (Homo sapiens)
- ASSAY METHOD TEXT: Activation of human recombinant glucokinase expressed in Escherichia coli coexpressing G6PDH at 10 uM using 20 mM glucose measured as ratio of enzyme activation in treated to untreated control by G6PDH coupled continuous spectrophotometric assay
Reported Ratio is given for each of the following molecules.
READOUT NAME: Ratio

molecule=Cc1cc(C(=O)Nc2nc3c(s2)CCC3)c(C)s1 result=1.37
molecule=CC(=O)Oc1cccc(-c2cc(C(=O)Nc3nc4c(s3)CCC4)c(C)o2)c1 result=0.92
molecule="O=C(Nc1nc2c(s1)CCCC2)C1CCOC1 (stereo unspecified)" result=0.93
molecule=Cc1oc(-c2ccccc2C(N)=O)cc1C(=O)Nc1nc2c(s1)CCC2 result=1.58
molecule=O=C(Nc1nc(C2CCCCC2)cs1)c1ccccc1 result=1.06
molecule=CC(=O)c1ccccc1-c1cc(C(=O)Nc2nc3c(s2)CCC3)c(C)s1 result=1.71
